Reported Percent Effect values follow for various molecules
Molecular target: Tyrosyl-tRNA synthetase, putative (Trypanosoma cruzi (strain CL Brener)) (UniProt Q4DSP6)
Sequence (Q4DSP6 as listed by the source): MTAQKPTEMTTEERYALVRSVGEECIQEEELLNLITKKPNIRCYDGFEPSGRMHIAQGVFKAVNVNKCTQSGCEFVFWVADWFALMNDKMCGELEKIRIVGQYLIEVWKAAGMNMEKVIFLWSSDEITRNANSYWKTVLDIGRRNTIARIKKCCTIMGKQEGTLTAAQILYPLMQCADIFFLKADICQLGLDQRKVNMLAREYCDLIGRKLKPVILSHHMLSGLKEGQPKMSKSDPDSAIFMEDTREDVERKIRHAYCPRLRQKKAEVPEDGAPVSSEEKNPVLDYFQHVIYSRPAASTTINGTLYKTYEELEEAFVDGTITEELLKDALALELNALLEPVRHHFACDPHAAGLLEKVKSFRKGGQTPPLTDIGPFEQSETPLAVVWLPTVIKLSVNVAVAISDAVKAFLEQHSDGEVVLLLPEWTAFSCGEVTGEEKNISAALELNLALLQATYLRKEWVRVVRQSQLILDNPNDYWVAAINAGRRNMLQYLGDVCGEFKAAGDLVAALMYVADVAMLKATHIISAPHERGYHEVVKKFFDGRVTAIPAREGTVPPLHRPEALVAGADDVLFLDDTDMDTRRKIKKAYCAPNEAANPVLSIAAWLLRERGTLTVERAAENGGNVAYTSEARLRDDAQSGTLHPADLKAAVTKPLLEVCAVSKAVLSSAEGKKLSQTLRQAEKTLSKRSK
Assay: Trypanosoma cruzi tyrosyl tRNA synthetase (TcYRS) _High Tyrosine SOP; note: in the data most compounds retested in dose-response had high values
Type: functional
Parameters: scale not given: direction of the effect not stated beside the values
Details: 30 µM
Kindly answer with a numeric value in %, unit omitted.

The molecule COCCOc1ccccc1C(=O)N1CCCCC1c1nccs1 (stereo unspecified) showed Percent Effect equal to 4.43

* * *

Target: Protein translocase subunit SecA (Escherichia coli (strain K12))
Assay: Assay to Identify E. coli SecA ATPase Inhibitors
Type: functional
Design: scale not given: direction of the effect not stated beside the values
Conditions: 30 µM
Results with a measured potency or affinity are listed apart.
Percent Effect overview
Give me the value, and tack the unit on after it.

Summary for this compound, CC(NC(=O)NCc1ccoc1)c1ccc2c(c1)CCC(=O)N2 (configuration not stated) : Percent Effect is -9.31%

Percent Effect for COc1cc(N2C[C@H]3OCC[C@H]3[C@H](C(=O)NC3CC3)C2)ncn1 is -2.33%

Record COCCNc1ccc(CNC(=O)Nc2cn[nH]c2)cc1 , field Percent Effect: -0.0653%

Query NC(=O)C1CCCN(C(=O)c2cnc3c(cnn3C3CCCC3)c2)C1 (configuration not stated) yields Percent Effect of -8.82%

Percent Effect in this record for CCC(NC(=O)C1CCN(S(C)(=O)=O)CC1)c1ccc(OC)c(C)c1 (configuration not stated) : -0.552%

* * *

Organism: Homo sapiens
Experiment: To identify inhibition of the IFN signalling (Jak-Stat) pathway via expression of an eGFP reporter gene under the control of an IFN-stimulated response element (ISRE) containing MxA promoter.
Assay type: functional
Set-up: scale not given: direction of the effect not stated beside the values
Conditions: 30 µM
Quick reference for Percent Effect among some compounds
Form entry: value (%) — number only.

Sample records with Percent Effect:
# compound, unitAnnotation, Percent Effect
rows = [
    ("CCOCCC(=O)Nc1cccc(Oc2ccccn2)c1", "%", -0.792),
    ("Fc1ccc(CN2CCCN(Cc3cscn3)CC2)cc1", "%", 30.6),
    ("CCCN(Cc1ccccc1)Cn1nc(C)c2c(C)onc2c1=O", "%", 8.04),
    ("CC(C)c1nnc2n1CCN(C(=O)CN1CCc3sccc3C1)C2", "%", 0.728),
]

Short answer for O=S(=O)(CCN1CCOC(Cn2cccn2)C1)C(F)(F)F (stereo unspecified) : Percent Effect was 30.2

The recorded Percent Effect for entry N#CC1(C(=O)N2CCN(Cc3ccon3)CC2)CCC1 equals 23.8

So for Cc1cc(CN2CCN(CC(O)C(C)(C)C)CC2)no1 (stereo unspecified) , the logged Percent Effect turned out to be 14.7

Given item CC(C)CS(=O)(=O)N1C[C@H]2C[C@H](C(=O)NCc3ccccc3)[C@@H](C1)O2 , the value recorded as its Percent Effect is 2.72

compound CCC(=O)N1Cc2nccn2CC(CN(C)Cc2cccnc2)C1 (stereo unspecified) , Percent Effect observed: -7.96

Reported Percent Effect for Cc1nc(C)c(CC(=O)N2C[C@H]3CC[C@@H]2CN(C(=O)N(C)C)C3)c(=O)[nH]1 was 26.8

The value of Percent Effect measured for the compound Cc1cc(C[C@@H]2COC[C@@H]2NC(=O)CN2CCCC2)on1 turned out to be 18.8
